Tested on: Trypanosoma brucei rhodesiense (strain STIB900)
ASSAY PROCEDURE: In vitro drug activity assay, protozoon B (bloodstream form trypomastigotes, Alamar Blue)
Assay type: cell-based
CONDITION SUMMARY: incubated for 72 hours
Method: Trypanosoma brucei rhodesiense STIB900 bloodstream form trypomastigotes were maintained in HMI-18 medium (Hirumi H, Hirumi K, J Parasitol. 1989, 75(6):985-989) with 15% heat-inactivated fetal calf serum at 37°C, 5% CO2, humidified atmosphere. […] At 72 hours the plates were assessed microscopically before Alamar Blue was added (Raz et al., Acta Trop. 1997, 68: 139-147). Plates were read after 5 to 6 hours at EX/EM 530/585 nm with a filter cutoff at 550 nm. […]
Listed here: items and their measured ED50 (µg/mL).

Before answering, review these 4 worked examples.
>  <COMPOUND>
CCCCCCCCCCCCCCCCOP(=O)([O-])OCC[N+]12CCC(CC1)CC2 [Compound 3]

>  <REPORTED VALUE>
25,03 µg/mL

$$$$
>  <COMPOUND>
CCCCCCCCCCCCCCCCOP(=O)([O-])OC1CC[N+](C)(Cc2ccccc2)CC1 (centres unmarked) [Compound 1]

>  <REPORTED VALUE>
18,80 µg/mL

$$$$
>  <COMPOUND>
CCCCCCCCCCCCCCCCOP(=O)([O-])OC1CC[N+](C)(CCc2ccccc2)CC1 (centres unmarked) [Compound 4]

>  <REPORTED VALUE>
12,29 µg/mL

$$$$
>  <COMPOUND>
CCCCCCCCCCCCCCCCCCOP(=O)([O-])OC1CC[N+](CC)(CC)CC1 [Compound 5]

>  <REPORTED VALUE>
14,20 µg/mL

$$$$

Here is another compound to look at.
Check the records and state ED50 (µg/mL) for CCCCCCCCCCCCCCCCOP(=O)([O-])OCC[N+]1(C)CCCCC1 [Compound 2] 17,50 µg/mL

* * *

Listed here: items and their measured IC50.
System: KB/HeLa (ATCC CCL17, human cervix carcinoma)
ASSAY PROCEDURE: XTT cytotoxicity assay, KB/HeLa cells
Format: cell-based
CONDITION SUMMARY: 48 h, 2 days of continuous drug exposure
Description: Human tumor cell lines KB/HeLa (ATCC CCL17, human cervix carcinoma), PC3 (ATCC CRL1435, human prostate carcinoma) and RKOp21 (human colon adenocarcinoma) cells were used in an automated XTT screening assay for the assessment of cytotoxicity. The XTT assay quantifies cellular metabolic activity which correlates with cell viability and cell number. […] %-inhibition (cytotoxicity) of each test compound was calculated in relation to untreated control cells. […]
Quick reminder: number only, in µM, skip the unit.

>  <COMPOUND>
CCCCCCCCCCCCCCCCOP(=O)([O-])OCC[N+]1(C)CCCCC1 [Compound 2]

>  <IC50, µM>
5.02

$$$$
>  <COMPOUND>
CCCCCCCCCCCCCCCCOP(=O)([O-])OCC[N+](C)(C)C [miltefosine, reference compound]

>  <IC50, µM>
8.66

$$$$
>  <COMPOUND>
CCCCCCCC/C=C\CCCCCCCCCCCCOP(=O)([O-])OC1CC[N+](C)(C)CC1 [Compound 17]

>  <IC50, µM>
16.6

$$$$

Here is another compound to look at.
Check the records and state IC50 for CCCCCCCCCCCCCCCCCCOP(=O)([O-])OC1CC[N+](C)(C)CC1 [perifosine, reference compound] 2.37

* * *

System: Aspergillus fumigatus (ATCC 204305)
ASSAY PROCEDURE: Anti-fungal susceptibility test (microdilution), fungus H
Format: cell-based
CONDITION SUMMARY: Aspergillus fumigatus, ATCC204305, no visible growth after 72 hours at 35° C, read-out: MIC
Listed here: items and their measured MIC.
Quick reminder: number only, in µg/mL, skip the unit.

>  <COMPOUND>
CCCCCCCCCCCCCCCCOCCCOP(=O)([O-])OCC[N+](C)(C)C

>  <MIC / µg/mL>
2

$$$$
>  <COMPOUND>
CCCCCCCCCCCCCCCCOP(=O)([O-])OC1CC[N+](C)(Cc2ccccc2)CC1 (stereo not drawn)

>  <MIC / µg/mL>
2

$$$$
>  <COMPOUND>
CCCCCCCCCCCCCCCCCCOP(=O)([O-])OC1CC[N+](CC)(CC)CC1

>  <MIC / µg/mL>
6

$$$$

Check the records and state MIC for `CCCCCCCCCCCCCCCCOP(=O)([O-])OCC[N+]1(C)CCCCC1` 2

Check the records and state MIC for `CCCCCCCCCCCCCCCCOP(=O)([O-])OCC[N+]12CCC(CC1)CC2` 3
